target-desc: G-protein coupled receptor 68 (Mus musculus) (UniProt Q8BFQ3)
Sequence (Q8BFQ3 whole entry): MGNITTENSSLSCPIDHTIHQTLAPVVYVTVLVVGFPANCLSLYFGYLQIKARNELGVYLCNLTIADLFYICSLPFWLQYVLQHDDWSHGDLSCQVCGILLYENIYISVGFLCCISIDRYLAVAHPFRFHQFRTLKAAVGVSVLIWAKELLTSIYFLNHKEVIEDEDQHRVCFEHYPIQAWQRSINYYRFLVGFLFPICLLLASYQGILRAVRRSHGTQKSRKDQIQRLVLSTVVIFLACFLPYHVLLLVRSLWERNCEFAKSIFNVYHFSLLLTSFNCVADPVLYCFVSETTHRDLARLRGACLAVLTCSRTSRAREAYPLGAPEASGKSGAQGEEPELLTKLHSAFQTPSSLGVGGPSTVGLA
experimental-details: Positive allosteric modulation of mouse GPR68 expressed in HEK293T cells co-expressing Gs assessed as stimulation of proton-mediated cAMP production by measuring allosteric affinity cooperativity in HBSS buffer containing pH 6.8 to 8.2 HEPES/pH 8.3 to 8.6 TAPS measured after 20 to 30 mins in presence of PDE inhibitor Ro 20-1724 by luciferase-glo reporter gene assay
Type: functional, cell-based
property-measured: log(activity)

I: Nc1nc(NCc2ccccc2)nc(-c2ccccc2CO)n1
II: Nc1nc(NCc2ccc(Oc3ccccc3)cc2)nc(-c2c(F)cccc2CO)n1
Inquiry: Lower log(activity): I or II ? Answer = label.
Reply text: I
(I: 0.8, II: 1.26)

* * *

target-desc: G-protein coupled receptor 68 (Homo sapiens)
experimental-details: Positive allosteric modulation of human GPR68 expressed in HEK293T cells co-expressing Gs assessed as stimulation of proton-mediated cAMP production by measuring allosteric index in HBSS buffer containing pH 6.8 to 8.2 HEPES/pH 8.3 to 8.6 TAPS measured after 20 to 30 mins in presence of PDE inhibitor Ro 20-1724 by luciferase-glo reporter gene assay
Format: functional, cell-based
property-measured: Activity index

{"entry-smiles": "Nc1nc(NCCCc2ccccc2)nc(-c2cc(Cl)ccc2CO)n1", "target-desc": "G-protein coupled receptor 68 (Homo sapiens)", "Activity index": 6.38}
{"entry-smiles": "CCOc1ccc(-c2nc(N)nc(NCc3ccccc3)n2)c(CO)c1", "target-desc": "G-protein coupled receptor 68 (Homo sapiens)", "Activity index": 5.34}
{"entry-smiles": "Nc1nc(NCc2ccc(C(F)(F)F)cc2)nc(-c2ccccc2CO)n1", "target-desc": "G-protein coupled receptor 68 (Homo sapiens)", "Activity index": 6.1}
{"entry-smiles": "CCNc1nc(NCc2ccccc2)nc(-c2ccccc2CO)n1", "target-desc": "G-protein coupled receptor 68 (Homo sapiens)", "Activity index": 5.34}
{"entry-smiles": "Nc1nc(NCCCCc2ccccc2)nc(-c2ccccc2CO)n1", "target-desc": "G-protein coupled receptor 68 (Homo sapiens)", "Activity index": 6.35}
{"entry-smiles": "Cc1cccc(CNc2nc(N)nc(-c3c(F)cccc3CO)n2)c1", "target-desc": "G-protein coupled receptor 68 (Homo sapiens)", "Activity index": 5.42}
{"entry-smiles": "Nc1nc(NCCCCc2ccc(Oc3ccccc3)cc2)nc(-c2ccccc2CO)n1", "target-desc": "G-protein coupled receptor 68 (Homo sapiens)", "Activity index": 5.94}
{"entry-smiles": "Nc1nc(NCc2ccc(Cl)cc2)nc(-c2ccccc2CO)n1", "target-desc": "G-protein coupled receptor 68 (Homo sapiens)", "Activity index": 6.11}
{"entry-smiles": "COc1ccc(CNc2nc(N)nc(-c3ccccc3CO)n2)cc1", "target-desc": "G-protein coupled receptor 68 (Homo sapiens)", "Activity index": 4.61}
{"entry-smiles": "Nc1nc(NCc2ccccc2)nc(-c2cc(F)ccc2CO)n1", "target-desc": "G-protein coupled receptor 68 (Homo sapiens)", "Activity index": 5.69}
{"entry-smiles": "Nc1nc(NCCc2ccc(Oc3ccccc3)cc2)nc(-c2ccccc2CO)n1", "target-desc": "G-protein coupled receptor 68 (Homo sapiens)", "Activity index": 5.9}

* * *

target-desc: G-protein coupled receptor 68 (Homo sapiens) (UniProt Q15743)
Sequence (Q15743 whole entry): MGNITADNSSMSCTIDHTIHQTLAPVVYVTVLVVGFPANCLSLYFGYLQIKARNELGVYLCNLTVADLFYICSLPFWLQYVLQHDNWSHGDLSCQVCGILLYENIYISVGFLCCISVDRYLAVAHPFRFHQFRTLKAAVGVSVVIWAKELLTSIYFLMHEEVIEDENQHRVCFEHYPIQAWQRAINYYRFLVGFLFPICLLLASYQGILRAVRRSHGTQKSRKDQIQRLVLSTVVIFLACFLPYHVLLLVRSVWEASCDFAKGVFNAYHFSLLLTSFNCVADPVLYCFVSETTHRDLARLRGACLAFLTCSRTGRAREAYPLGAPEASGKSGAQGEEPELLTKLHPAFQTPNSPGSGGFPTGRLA
experimental-details: Positive allosteric modulation of human GPR68 expressed in HEK293T cells co-expressing Gs assessed as stimulation of proton-mediated cAMP production by measuring allosteric index in HBSS buffer containing pH 6.8 to 8.2 HEPES/pH 8.3 to 8.6 TAPS measured after 20 to 30 mins in presence of PDE inhibitor Ro 20-1724 by luciferase-glo reporter gene assay
Type: functional, cell-based
property-measured: Activity index

{"entry-smiles": "Nc1nc(NCc2ccc(F)cc2)nc(-c2c(F)cccc2CO)n1", "target-desc": "G-protein coupled receptor 68 (Homo sapiens) (UniProt Q15743)", "Activity index": 5.55}
{"entry-smiles": "CCOc1ccc(CNc2nc(N)nc(-c3ccccc3CO)n2)cc1", "target-desc": "G-protein coupled receptor 68 (Homo sapiens) (UniProt Q15743)", "Activity index": 5.57}
{"entry-smiles": "NCc1ccccc1-c1nc(N)nc(NCc2ccccc2)n1", "target-desc": "G-protein coupled receptor 68 (Homo sapiens) (UniProt Q15743)", "Activity index": 5.01}
{"entry-smiles": "COc1ccccc1CNc1nc(N)nc(-c2c(F)cccc2CO)n1", "target-desc": "G-protein coupled receptor 68 (Homo sapiens) (UniProt Q15743)", "Activity index": 5.11}
{"entry-smiles": "COc1cccc(-c2nc(N)nc(NCc3ccccc3)n2)c1CO", "target-desc": "G-protein coupled receptor 68 (Homo sapiens) (UniProt Q15743)", "Activity index": 4.86}
{"entry-smiles": "Nc1nc(NCCc2ccccc2)nc(-c2c(F)cccc2CO)n1", "target-desc": "G-protein coupled receptor 68 (Homo sapiens) (UniProt Q15743)", "Activity index": 6.13}
{"entry-smiles": "Nc1nc(NCc2ccccc2)nc(-c2c(Cl)cccc2CO)n1", "target-desc": "G-protein coupled receptor 68 (Homo sapiens) (UniProt Q15743)", "Activity index": 5.56}
{"entry-smiles": "COc1ccc(CO)c(-c2nc(N)nc(NCc3ccccc3)n2)c1", "target-desc": "G-protein coupled receptor 68 (Homo sapiens) (UniProt Q15743)", "Activity index": 4.77}
{"entry-smiles": "COc1ccc(-c2nc(N)nc(NCc3ccccc3)n2)c(CO)c1", "target-desc": "G-protein coupled receptor 68 (Homo sapiens) (UniProt Q15743)", "Activity index": 4.97}
{"entry-smiles": "Cc1ccccc1CNc1nc(N)nc(-c2ccccc2CO)n1", "target-desc": "G-protein coupled receptor 68 (Homo sapiens) (UniProt Q15743)", "Activity index": 5.57}
{"entry-smiles": "Nc1nc(Nc2ccccc2)nc(-c2ccccc2CO)n1", "target-desc": "G-protein coupled receptor 68 (Homo sapiens) (UniProt Q15743)", "Activity index": 5.04}
{"entry-smiles": "COc1cccc(CNc2nc(N)nc(-c3ccccc3CO)n2)c1", "target-desc": "G-protein coupled receptor 68 (Homo sapiens) (UniProt Q15743)", "Activity index": 5.22}
{"entry-smiles": "Nc1nc(NCc2ccc(OC3CC3)cc2)nc(-c2ccccc2CO)n1", "target-desc": "G-protein coupled receptor 68 (Homo sapiens) (UniProt Q15743)", "Activity index": 5.77}
{"entry-smiles": "Nc1nc(NCc2ccccc2)nc(-c2ccccc2CO)n1", "target-desc": "G-protein coupled receptor 68 (Homo sapiens) (UniProt Q15743)", "Activity index": 5.31}
{"entry-smiles": "CC(C)Oc1ccc(CNc2nc(N)nc(-c3ccccc3CO)n2)cc1", "target-desc": "G-protein coupled receptor 68 (Homo sapiens) (UniProt Q15743)", "Activity index": 5.69}
{"entry-smiles": "Cc1ccc(CNc2nc(N)nc(-c3ccccc3CO)n2)cc1", "target-desc": "G-protein coupled receptor 68 (Homo sapiens) (UniProt Q15743)", "Activity index": 5.6}
{"entry-smiles": "Nc1nc(NCc2ccccc2C(F)(F)F)nc(-c2ccccc2CO)n1", "target-desc": "G-protein coupled receptor 68 (Homo sapiens) (UniProt Q15743)", "Activity index": 5.96}
{"entry-smiles": "Nc1nc(NCCCCc2ccccc2)nc(-c2c(F)cccc2CO)n1", "target-desc": "G-protein coupled receptor 68 (Homo sapiens) (UniProt Q15743)", "Activity index": 5.34}
{"entry-smiles": "CC(C)Oc1ccc(-c2nc(N)nc(NCc3ccccc3)n2)c(CO)c1", "target-desc": "G-protein coupled receptor 68 (Homo sapiens) (UniProt Q15743)", "Activity index": 5.74}
{"entry-smiles": "Nc1nc(NCc2ccccc2F)nc(-c2ccccc2CO)n1", "target-desc": "G-protein coupled receptor 68 (Homo sapiens) (UniProt Q15743)", "Activity index": 5.56}
{"entry-smiles": "Nc1nc(NCc2ccc(Oc3ccccc3)cc2)nc(-c2c(F)cccc2CO)n1", "target-desc": "G-protein coupled receptor 68 (Homo sapiens) (UniProt Q15743)", "Activity index": 6.83}
{"entry-smiles": "Cc1cccc(CNc2nc(N)nc(-c3ccccc3CO)n2)c1", "target-desc": "G-protein coupled receptor 68 (Homo sapiens) (UniProt Q15743)", "Activity index": 5.57}

* * *

target-desc: G-protein coupled receptor 68 (Homo sapiens) (UniProt Q15743)
experimental-details: Positive allosteric modulation of human GPR68 expressed in HEK293T cells co-expressing Gs assessed as stimulation of proton-mediated cAMP production by measuring efficacy cooperativity in HBSS buffer containing pH 6.8 to 8.2 HEPES/pH 8.3 to 8.6 TAPS measured after 20 to 30 mins in presence of PDE inhibitor Ro 20-1724 by luciferase-glo reporter gene assay
Format: functional, cell-based
property-measured: log(activity)

The examples below pair each entry with its known result.
{"entry-smiles": "Cc1cccc(CNc2nc(N)nc(-c3c(F)cccc3CO)n2)c1", "log(activity)": 0.14}
{"entry-smiles": "Nc1nc(NCc2ccc(Oc3ccccc3)cc2)nc(-c2c(F)cccc2CO)n1", "log(activity)": 0.06}
{"entry-smiles": "Nc1nc(NCc2ccc(Cl)cc2)nc(-c2ccccc2CO)n1", "log(activity)": 0.41}
{"entry-smiles": "Nc1nc(NCCc2ccccc2)nc(-c2ccccc2CO)n1", "log(activity)": 0.24}

Now consider the entry below.
Inquiry: GET /values?readout=log(activity)&system=G-protein coupled receptor 68 (Homo sapiens) (UniProt Q15743)&item= `Nc1nc(NCCc2ccccc2)nc(-c2cc(Cl)ccc2CO)n1`
Reply text: 0.03
